- SUBJECT OF TEST: human TRPA1 (Homo sapiens)
- Construct: expressed in transfected cells; host or cells: CHO cells (G-418 selection)
- PROTOCOL DETAILS: 45Calcium uptake assay: inhibition of AITC induced cellular uptake of radioactive calcium, human TRPA1 expressing CHO cells
- Assay type: cell-based
- TEST PARAMETERS: 1.0 μM compound, AITC 30 μM, read-out: human TRPA1 Percentage inhibition at 1.0 μM
EXPERIMENTAL ENDPOINT: inhibition at 1 µM (%)

MOLECULAR STRING	SUBJECT OF TEST	inhibition at 1 µM / %
Cn1c(=O)c2c(CC(=O)Nc3nc(-c4cc(Cl)c(OCC(C)(C)C)c(Cl)c4)cs3)coc2n(C)c1=O	human TRPA1 (Homo sapiens)	99.2
Cc1oc2c(c1CC(=O)Nc1nc(-c3ccc(C(F)(F)F)cc3)cs1)c(=O)n(C)c(=O)n2C	human TRPA1 (Homo sapiens)	99.6

A = Cc1oc2c(c1CC(=O)Nc1nc(-c3cccc(Cl)c3Cl)cs1)c(=O)n(C)c(=O)n2C
B = Cn1c(=O)c2c(CC(=O)Nc3nc4c(F)cc(F)cc4s3)coc2n(C)c1=O
Between A and B , which one shows the smaller inhibition at 1 µM number? Label of pick, please.
B

----------
- SUBJECT OF TEST: rat TRPA1 (Rattus norvegicus)
- Construct: expressed in transfected cells; host or cells: CHO cells (Zeocin selection)
- PROTOCOL DETAILS: 45Calcium uptake assay: inhibition of AITC induced cellular uptake of radioactive calcium, rat TRPA1 expressing CHO cells
- Assay type: cell-based
- TEST PARAMETERS: AITC 10 μM, read-out: rat TRPA1 Percentage inhibition
- Description: Screening for TRPA1 Antagonist Using the ^45Calcium Uptake Assay: The inhibition of TRPA1 receptor activation was measured as inhibition of allyl isothiocyanate (AITC) induced cellular uptake of radioactive calcium. Test compounds were dissolved in 100% DMSO to prepare 10 mM stock and then diluted using plain medium with 0.1% BSA and 1.8 mM CaCl2 to get the desired concentration. […] Radioactivity in the lysate was measured in a Packard TopCount after addition of liquid scintillant. […]
EXPERIMENTAL ENDPOINT: inhibition at 1 µM (%)

MOLECULAR STRING	SUBJECT OF TEST	EXPERIMENTAL VALUE
Cc1oc2c(c1CC(=O)Nc1nc(-c3cc(Cl)c(OCC(C)C)c(Cl)c3)cs1)c(=O)n(C)c(=O)n2C	rat TRPA1 (Rattus norvegicus)	100
Cn1c(=O)c2c(CC(=O)Nc3nc(-c4ccc(F)c(OC(F)(F)F)c4)cs3)coc2n(C)c1=O	rat TRPA1 (Rattus norvegicus)	100
Cn1c(=O)c2c(CC(=O)Nc3nc(-c4ccc(OCC(F)(F)F)c(F)c4)cs3)coc2n(C)c1=O	rat TRPA1 (Rattus norvegicus)	97.1
Cc1oc2c(c1CC(=O)Nc1nc(-c3ccc(C(F)(F)F)c(Cl)c3)cs1)c(=O)n(C)c(=O)n2C	rat TRPA1 (Rattus norvegicus)	99.8
Cn1c(=O)c2c(CC(=O)Nc3nc(-c4cc(F)c(OCC(F)(F)F)c(Cl)c4)cs3)coc2n(C)c1=O	rat TRPA1 (Rattus norvegicus)	99.6
Cn1c(=O)c2c(CC(=O)Nc3nc(-c4ccc(OCC(F)(F)F)c(Br)c4)cs3)coc2n(C)c1=O	rat TRPA1 (Rattus norvegicus)	85.2
Cc1oc2c(c1CC(=O)Nc1nc(-c3cc(C(F)(F)F)ccc3F)cs1)c(=O)n(C)c(=O)n2C	rat TRPA1 (Rattus norvegicus)	97.6

----------
- SUBJECT OF TEST: rat TRPA1 (Rattus norvegicus, UniProt Q6RI86)
- Sequence (Q6RI86 whole entry): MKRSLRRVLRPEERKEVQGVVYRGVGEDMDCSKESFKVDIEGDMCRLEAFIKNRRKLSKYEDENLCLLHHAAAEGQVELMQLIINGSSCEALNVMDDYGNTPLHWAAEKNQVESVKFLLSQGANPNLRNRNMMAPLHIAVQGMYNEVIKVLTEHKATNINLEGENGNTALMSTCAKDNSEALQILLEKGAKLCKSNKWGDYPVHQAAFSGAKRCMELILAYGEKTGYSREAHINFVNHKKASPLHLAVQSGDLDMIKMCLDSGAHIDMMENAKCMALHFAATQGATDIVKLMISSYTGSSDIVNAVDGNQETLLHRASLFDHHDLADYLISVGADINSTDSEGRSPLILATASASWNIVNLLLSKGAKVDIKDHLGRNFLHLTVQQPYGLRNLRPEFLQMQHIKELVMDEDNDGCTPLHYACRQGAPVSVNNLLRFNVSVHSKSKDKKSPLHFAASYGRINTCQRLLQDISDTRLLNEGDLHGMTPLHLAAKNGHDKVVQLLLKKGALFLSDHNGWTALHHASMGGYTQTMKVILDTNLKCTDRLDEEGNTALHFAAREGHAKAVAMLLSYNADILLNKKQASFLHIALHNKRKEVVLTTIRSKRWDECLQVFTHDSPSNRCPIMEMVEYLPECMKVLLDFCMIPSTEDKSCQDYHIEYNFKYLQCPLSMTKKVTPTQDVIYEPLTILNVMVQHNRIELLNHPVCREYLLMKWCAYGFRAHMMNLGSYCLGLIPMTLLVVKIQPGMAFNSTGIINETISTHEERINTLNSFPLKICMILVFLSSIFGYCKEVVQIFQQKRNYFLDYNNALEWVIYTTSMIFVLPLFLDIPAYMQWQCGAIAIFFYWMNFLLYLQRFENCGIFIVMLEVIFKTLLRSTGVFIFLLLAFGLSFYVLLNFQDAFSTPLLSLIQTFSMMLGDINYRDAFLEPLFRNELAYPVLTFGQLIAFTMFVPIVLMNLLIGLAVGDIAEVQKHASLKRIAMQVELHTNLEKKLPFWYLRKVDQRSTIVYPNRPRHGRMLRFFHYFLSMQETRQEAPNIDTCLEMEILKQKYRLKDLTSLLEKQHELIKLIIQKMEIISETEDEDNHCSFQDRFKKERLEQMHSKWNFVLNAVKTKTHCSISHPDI
- PROTOCOL DETAILS: 45Calcium uptake assay: inhibition of AITC induced cellular uptake of radioactive calcium, rat TRPA1 expressing CHO cells
- TEST PARAMETERS: class symbols, AITC 10 μM
pIC50: −log10 of the molar value.
EXPERIMENTAL ENDPOINT: pIC50

Report measured pIC50 on rat TRPA1 (Rattus norvegicus, UniProt Q6RI86); entry: Cn1c(=O)c2c(CC(=O)Nc3nc(-c4ccc(F)c(C(F)(F)F)c4)cs3)coc2n(C)c1=O
> 7.30

Report measured pIC50 on rat TRPA1 (Rattus norvegicus, UniProt Q6RI86); entry: Cc1oc2c(c1CC(=O)Nc1nc(-c3cc(Cl)cc(C(F)(F)F)c3)cs1)c(=O)n(C)c(=O)n2C
7.00 to 7.30

----------
- SUBJECT OF TEST: human TRPA1 (Homo sapiens)
- Construct: expressed in transfected cells; host or cells: CHO cells (G-418 selection)
- PROTOCOL DETAILS: 45Calcium uptake assay: inhibition of AITC induced cellular uptake of radioactive calcium, human TRPA1 expressing CHO cells
- Type: cell-based
- TEST PARAMETERS: 10.0 μM compound, AITC 30 μM, read-out: human TRPA1 Percentage inhibition at 10.0 μM
EXPERIMENTAL ENDPOINT: inhibition at 10 µM (%)

Solved cases below.
COMPOUND	EXPERIMENTAL ENDPOINT	UNIT TEXT	EXPERIMENTAL VALUE
CC(C)Cc1ccc(-c2csc(NC(=O)Cc3coc4c3c(=O)n(C)c(=O)n4C)n2)cc1 [Example 5]	inhibition at 10 µM	%	99.8
Cn1c(=O)c2c(CC(=O)Nc3nc(-c4cc(F)c(F)cc4F)cs3)coc2n(C)c1=O [Example 33]	inhibition at 10 µM	%	98.1
Cn1c(=O)c2c(CC(=O)Nc3nc(-c4cc(F)c(C(F)(F)F)c(F)c4)cs3)coc2n(C)c1=O [Example 36]	inhibition at 10 µM	%	99.6

a = Cn1c(=O)c2c(CC(=O)Nc3nc(C(F)(F)F)cs3)coc2n(C)c1=O [Example 3]
b = Cn1c(=O)c2c(CC(=O)Nc3nc(-c4ccc(OCC(F)(F)F)c(Cl)c4)cs3)coc2n(C)c1=O [Example 31]
Between a and b , which one shows the smaller inhibition at 10 µM number? Label of pick, please.
a

----------
- SUBJECT OF TEST: rat TRPA1 (Rattus norvegicus)
- Construct: expressed in transfected cells; host or cells: CHO cells (Zeocin selection)
- PROTOCOL DETAILS: 45Calcium uptake assay: inhibition of AITC induced cellular uptake of radioactive calcium, rat TRPA1 expressing CHO cells
- Assay type: cell-based
- TEST PARAMETERS: AITC 10 μM, read-out: rat TRPA1 Percentage inhibition
EXPERIMENTAL ENDPOINT: inhibition at 1 µM (%)

COMPOUND	inhibition at 1 µM (%)
Cc1oc2c(c1CC(=O)Nc1nc(-c3ccc(OCC(F)(F)F)c(F)c3)cs1)c(=O)n(C)c(=O)n2C [Example 73]	100
Cn1c(=O)c2c(CC(=O)Nc3nc(-c4cc(F)c(OCC(F)(F)F)c(F)c4)cs3)coc2n(C)c1=O [Example 46]	96.1
Cc1oc2c(c1CC(=O)Nc1nc(-c3cccc(Cl)c3Cl)cs1)c(=O)n(C)c(=O)n2C [Example 55]	97.7
Cc1oc2c(c1CC(=O)Nc1nc(-c3cc(Cl)cc(C(F)(F)F)c3)cs1)c(=O)n(C)c(=O)n2C [Example 65]	99.8
Cn1c(=O)c2c(CC(=O)Nc3nc(-c4ccc(OC(F)F)c(Cl)c4)cs3)coc2n(C)c1=O [Example 24]	100
Cn1c(=O)c2c(CC(=O)Nc3ccc(Oc4ccc(C(F)(F)F)cc4)cc3)coc2n(C)c1=O [Example 1]	96.7
Cn1c(=O)c2c(CC(=O)Nc3nc(-c4ccc(OC(F)F)c(F)c4)cs3)coc2n(C)c1=O [Example 23]	92.6

----------
- SUBJECT OF TEST: human TRPA1 (Homo sapiens, UniProt O75762)
- Construct: expressed in transfected cells; host or cells: CHO cells (G-418 selection)
- Sequence (O75762 whole entry): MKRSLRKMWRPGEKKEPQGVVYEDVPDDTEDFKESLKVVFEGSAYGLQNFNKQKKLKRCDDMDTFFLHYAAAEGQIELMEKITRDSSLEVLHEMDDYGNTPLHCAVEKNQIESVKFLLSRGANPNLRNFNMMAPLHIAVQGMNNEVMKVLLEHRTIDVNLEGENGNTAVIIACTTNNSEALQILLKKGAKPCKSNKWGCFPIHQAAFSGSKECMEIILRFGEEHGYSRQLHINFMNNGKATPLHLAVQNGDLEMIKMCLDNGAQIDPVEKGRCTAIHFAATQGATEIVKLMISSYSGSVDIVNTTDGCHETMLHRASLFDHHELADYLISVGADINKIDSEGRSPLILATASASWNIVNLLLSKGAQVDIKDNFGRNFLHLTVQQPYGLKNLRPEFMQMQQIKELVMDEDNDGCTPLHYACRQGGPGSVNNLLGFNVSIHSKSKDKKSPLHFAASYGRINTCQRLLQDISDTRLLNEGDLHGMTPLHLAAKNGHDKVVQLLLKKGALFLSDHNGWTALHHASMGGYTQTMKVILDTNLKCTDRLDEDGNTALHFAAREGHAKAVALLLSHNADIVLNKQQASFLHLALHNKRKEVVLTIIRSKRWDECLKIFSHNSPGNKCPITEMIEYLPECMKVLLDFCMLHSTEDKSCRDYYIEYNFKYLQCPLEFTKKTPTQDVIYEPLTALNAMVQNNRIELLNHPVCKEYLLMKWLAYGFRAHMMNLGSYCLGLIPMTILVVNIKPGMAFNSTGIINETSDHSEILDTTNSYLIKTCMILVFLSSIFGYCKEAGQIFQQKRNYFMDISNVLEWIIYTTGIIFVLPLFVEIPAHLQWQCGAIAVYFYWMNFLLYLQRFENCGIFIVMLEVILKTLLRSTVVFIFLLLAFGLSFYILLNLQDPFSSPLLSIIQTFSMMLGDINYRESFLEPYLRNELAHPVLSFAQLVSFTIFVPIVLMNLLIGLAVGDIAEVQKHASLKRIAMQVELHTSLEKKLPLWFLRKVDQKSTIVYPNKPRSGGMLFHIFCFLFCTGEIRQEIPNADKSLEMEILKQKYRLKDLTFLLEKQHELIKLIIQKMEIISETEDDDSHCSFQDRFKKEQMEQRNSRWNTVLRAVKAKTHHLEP
- PROTOCOL DETAILS: 45Calcium uptake assay: inhibition of AITC induced cellular uptake of radioactive calcium, human TRPA1 expressing CHO cells
- Assay type: cell-based
- TEST PARAMETERS: 1.0 μM compound, AITC 30 μM, read-out: human TRPA1 Percentage inhibition at 1.0 μM
EXPERIMENTAL ENDPOINT: inhibition at 1 µM (%)

MOLECULAR STRING	EXPERIMENTAL ENDPOINT	EXPERIMENTAL VALUE
Cn1c(=O)c2c(CC(=O)Nc3nc(-c4ccc(OC(F)(F)F)c(F)c4)cs3)coc2n(C)c1=O	inhibition at 1 µM	99.9
Cc1oc2c(c1CC(=O)Nc1nc(-c3ccc(OC(F)(F)F)cc3)cs1)c(=O)n(C)c(=O)n2C	inhibition at 1 µM	99.7
Cn1c(=O)c2c(CC(=O)Nc3nc(-c4cc(Cl)c(OC(F)F)c(Cl)c4)cs3)coc2n(C)c1=O	inhibition at 1 µM	99.8
Cn1c(=O)c2c(CC(=O)Nc3nc(-c4cccc(C(F)(F)F)c4F)cs3)coc2n(C)c1=O	inhibition at 1 µM	98.5
